system: blackgrass (Alopecurus myosuroides); assay: Test A postemergence; type: in vivo; conditions: Postemergence, 500 g ai/ha; 0 to 100 scale where 0 is no effect and 100 is complete control
Measured Plant response rating, Blackgrass of individual entries
Reply briefly: the number, and no unit.

Would you please look over these solved cases?
O=C1NCC(c2ccnc(C(F)(F)F)c2)C1C(=O)Nc1ccccc1F (racemic) :: 40
O=C1NCC(c2ccc(Oc3ccccc3)cc2)C1C(=O)Nc1ccc(F)cc1F (racemic) :: 0
O=C1NCC(c2ccc(C(F)(F)F)c(F)c2)C1C(=O)Nc1cccc(F)c1F (racemic) :: 60
O=C1NCC(c2cc(F)cc(C(F)(F)F)c2)C1C(=O)Nc1ccccc1F (stereo not shown) :: 70
Cc1ccc(C2CN(C)C(=O)C2C(=O)Nc2ccccc2F)c(F)c1 (stereo not shown) :: 50
CCc1cccc(C2CN(C)C(=O)C2C(=O)Nc2ccccc2S(C)(=O)=O)c1 (stereo not shown) :: 80
O=C1NCC(c2ccsc2Br)C1C(=O)Nc1cccc(F)c1F (stereo not shown) :: 0
CN1CC(c2cccc(Br)c2)C(C(=O)Nc2cccc(F)c2F)C1=O (stereo not shown) :: 70
O=C(Nc1cccc(F)c1F)C1C(=O)N(C2C=CCCC2)CC1c1cccc(C(F)(F)F)c1 (stereo not shown) :: 30

Proceeding to the next compound to report its Plant response rating, Blackgrass.
[in] Please tell me: Plant response rating, Blackgrass of O=C(Nc1ccccc1F)C1C(=O)N(c2ccc([N+](=O)[O-])cc2)CC1c1cccc(C(F)(F)F)c1 (stereo not shown) , system blackgrass (Alopecurus myosuroides)?
[out] 0

---

system: ducksalad (Heteranthera limosa); assay: Test B flooded paddy test; type: in vivo; settings: Heteranthera limosa, 250 g ai/ha, Flood; 0 to 100 scale where 0 is no effect and 100 is complete control; read-out: Ducksalad plant response rating
observed.property: pest or weed control at 250 g/ha (%)
The reply should be a number in %, with the unit left off.

See these solved cases before continuing.
CN1C[C@H](c2ccc(F)c(F)c2)[C@@H](C(=S)Nc2ccccc2F)C1=O (racemic) :: 70
CN1C[C@H](c2csc3c2CCOC3)[C@@H](C(=O)Nc2ccccc2S(C)(=O)=O)C1=O :: 0
O=C(Nc1ccccc1C(F)(F)F)[C@H]1C(=S)NC[C@@H]1c1ccc(C(F)(F)F)cc1 (racemic) :: 70
O=C(Nc1ccc(F)c(F)c1F)[C@H]1C(=O)N(C2CC2)CC[C@@H]1c1ccc(F)cc1 :: 60
CN1C[C@H](c2cscn2)[C@@H](C(=O)Nc2ccccc2F)C1=O :: 0
O=C1NC[C@H](c2nccc(C(F)(F)F)n2)[C@H]1C(=O)Nc1ccccc1F :: 0

[in] What is its pest or weed control at 250 g/ha for ducksalad (Heteranthera limosa)? Entry: CN1C[C@H](c2ccc(C(F)(F)F)cc2)[C@@H](C(=O)Nc2ccccc2-n2cccn2)C1=O
[out] 0

[in] Request body: readout pest or weed control at 250 g/ha, system ducksalad (Heteranthera limosa), query O=C1NC[C@H](c2ccc3c(c2)OCO3)[C@H]1C(=O)Nc1cccc(F)c1C(F)(F)F . Return the value.
[out] 100

[in] What reported pest or weed control at 250 g/ha corresponds to O=C(Nc1cccc(Cl)c1F)[C@H]1C(=O)N(C2CC2)CC[C@@H]1c1ccc(F)cc1 on ducksalad (Heteranthera limosa)?
[out] 0

---

tested on: giant foxtail (Setaria faberii); assay: Test A preemergence; assay type: in vivo; conditions: 125 g ai/ha, preemergence; 0 to 100 scale (0 no effect, 100 complete control)
Excerpt: […]
observed.property: Plant response rating, Foxtail, Giant
Reply briefly: the number, and no unit.

CN1CC(c2ccc(Cl)cc2)C(C(=O)Nc2cccc(F)c2F)C1=O (stereo not shown) :: 90
O=C1NCC(c2cccnc2)C1C(=O)Nc1ccccc1C(F)(F)F (racemic) :: 0

[in] Give the reported Plant response rating, Foxtail, Giant for CN1CC(c2ccc3c(c2)OC(F)(F)O3)C(C(=O)Nc2ccccc2S(C)(=O)=O)C1=O (stereo not shown) (system: giant foxtail (Setaria faberii)).
[out] 90

[in] Requested read-out Plant response rating, Foxtail, Giant, target or system giant foxtail (Setaria faberii), entry Cc1ccc(C2CNC(=O)C2C(=O)Nc2ccc(F)cc2F)cc1F (racemic)
[out] 90

[in] Param readout= Plant response rating, Foxtail, Giant; system= giant foxtail (Setaria faberii); entry= C=C(Cl)CN1CC(c2cccc(C(F)(F)F)c2)C(C(=O)Nc2cccc(F)c2F)C1=O (stereo not shown) ; returns value.
[out] 70

[in] Entry O=C(Nc1cccc(F)c1F)C1C(=S)NCC1c1cccc(C(F)(F)F)c1 (stereo not shown) , system giant foxtail (Setaria faberii): what Plant response rating, Foxtail, Giant was measured?
[out] 80

[in] // map CN1CC(c2ccc(F)cc2)C(C(=O)Nc2cccc(F)c2F)C1=O (stereo not shown) to recorded Plant response rating, Foxtail, Giant (system: giant foxtail (Setaria faberii))
[out] 100

---

tested on: barnyardgrass (Echinochloa crus-galli); test: Test A postemergence; format: in vivo; conditions: Echinochloa crus-galli, post-emergence, 240 h, 125 g ai/ha, Postemergence, visual rating about 10 d after treatment; read-out: Barnyardgrass plant response rating (0 to 100 scale, 0 no effect, 100 complete control)
observed.property: pest or weed control at 125 g/ha (%)
Return type: number; implicit unit %.

CN1C[C@H](c2ccc(C(F)(F)F)cc2)[C@@H](C(=O)Nc2cccc(C#N)c2F)C1=O [Compound 1381] :: 80
O=C1NCC(c2ccccc2)C1C(=O)Nc1cc(F)ccc1F (stereo not shown) [Compound 1359] :: 0
Cc1nc([C@H]2CN(C)C(=O)[C@@H]2C(=O)Nc2ccccc2F)cs1 [Compound 1280] :: 0
CSc1ccccc1NC(=O)[C@H]1C(=O)NC[C@@H]1c1cc(C)cc(F)c1 [Compound 1306] :: 20
O=C1NC[C@H](c2cc(Br)cc(Br)c2)[C@H]1C(=O)Nc1cccc(F)c1F [Compound 1366] :: 70
CN1C[C@H](c2csc3c2CCC(F)(F)C3)[C@@H](C(=O)Nc2ccc(F)c(F)c2F)C1=O (racemic) [Compound 1368] :: 50

[in] Fill blank: measured pest or weed control at 125 g/ha of the compound CN1C[C@H](c2ccc(C(F)(F)F)cc2)[C@@H](C(=O)Nc2ccccc2-n2cccn2)C1=O [Compound 1283] is ____.
[out] 0

---

test system: ryegrass, Italian (Italian ryegrass, Lolium multiflorum); test: Test A postemergence; assay type: in vivo; conditions: Lolium multiflorum, post-emergence, 240 h, 125 g ai/ha, postemergence; visual injury after approximately 10 d; 0 to 100 scale (0 no effect, 100 complete control); read-out: Plant response rating, Ryegrass, Italian
observed.property: pest or weed control at 125 g/ha (%)
Numeric only. Scale: %

Sample answers from the record:
O=C1NC[C@H](c2cccc(C(F)(F)F)c2)[C@H]1C(=O)Nc1ccccc1C1CC1 :: 0
Cc1cc([C@H]2CNC(=O)[C@@H]2C(=O)Nc2ccc(F)cc2F)ccc1Cl :: 0
O=C1NC[C@H](c2cscn2)[C@H]1C(=O)Nc1ccccc1F :: 20

Next, consider the following compound.
[in] Give the measured pest or weed control at 125 g/ha of CCc1ccc([C@H]2CNC(=S)[C@@H]2C(=O)Nc2cccc(F)c2F)cc1 .
[out] 0

---

tested on: ryegrass, Italian (Italian ryegrass, Lolium multiflorum); assay: Test A preemergence; type: in vivo; conditions: 125 g ai/ha, Preemergence; visual injury after approximately 10 d; 0 to 100 scale where 0 is no effect and 100 is complete control
observed.property: Plant response rating, Ryegrass, Italian
# respond with the number and nothing more

Answered examples (7):
C#Cc1cccc(C2CNC(=O)C2C(=O)Nc2cccc(F)c2F)c1 (racemic) :: 20
CN1CC(c2cc(F)cc(F)c2)C(C(=O)Nc2ccc(F)cc2F)C1=O (centres unmarked) :: 20
O=C1NCC(c2cc(Cl)sc2Cl)C1C(=O)Nc1cccc(F)c1F (centres unmarked) :: 0
CN1CC(c2cccc(OC(F)F)c2)C(C(=O)Nc2ccc(F)cc2F)C1=O (centres unmarked) :: 70
COc1ccc(N2CC(c3cccc(C(F)(F)F)c3)C(C(=O)Nc3ccccc3F)C2=O)cc1 (centres unmarked) :: 0
Cc1cccc(C2CN(C)C(=O)C2C(=O)Nc2ccccc2F)c1 (centres unmarked) :: 20
CN1CC(c2ccc(OC(F)F)cc2)C(C(=O)Nc2cccc(F)c2F)C1=O (centres unmarked) :: 60

Now turn to the next molecule.
[in] Which value of Plant response rating, Ryegrass, Italian has been reported for CCc1ccc(C2CNC(=O)C2C(=O)Nc2ccccc2S(C)(=O)=O)cc1 (centres unmarked) in the records?
[out] 0

---

system: barnyardgrass (Echinochloa crus-galli); experiment: Test C preemergence; format: in vivo; details: 62 g ai/ha, scale 0 to 100, 0 no effect, 100 complete control
From the text: […]
observed.property: Plant response rating, Barnyardgrass
Reply with the value as a number alone.

CN1CC(c2cccc(OC(F)(F)C(F)F)c2)C(C(=O)Nc2cccc(F)c2F)C1=O (centres unmarked) [Compound 392] :: 90
O=C1NCC(c2cccc(C(F)(F)F)c2F)C1C(=O)Nc1cccc(F)c1F (centres unmarked) [Compound 591] :: 90
CN1CC(c2ccc(C(F)(F)F)c(F)c2)C(C(=O)Nc2cccc(F)c2F)C1=O (centres unmarked) [Compound 396] :: 95
CC(C)Oc1cccc(C2CN(C)C(=O)C2C(=O)Nc2ccccc2S(C)(=O)=O)c1 (centres unmarked) [Compound 653] :: 55

Field: next compound
[in] Recorded Plant response rating, Barnyardgrass for Cc1ccc(C2CN(C)C(=O)C2C(=O)Nc2ccccc2C(F)(F)F)cc1 (centres unmarked) [Compound 665] , please?
[out] 95
